# System: K562
# test: NCI tumour cell line growth inhibition, 48 h
Activity calls are given as the source filed them. No stated cut-off is given here; in the data, active = GI50 up to about 1.1 µM and inactive = higher.
Choose the fitting class; nothing outside class 1 (active), class 0 (inactive) is accepted.

**Q:** For `Cc1ccc(NC(=O)c2cc3cc(/N=N/c4ccccc4C(=O)O)ccc3oc2=O)cc1` , which call appears in the assay record?
**A:** class 0

**Q:** Same question for `O=C(O)c1cccc(SSc2cccc(C(=O)O)c2)c1` please.
**A:** class 0

**Q:** Same question for O=C1OC(c2ccccc2)N(C(=O)c2ccccc2)C1Cc1ccc(OCc2ccccc2)cc1 (stereo unspecified) please.
**A:** class 0

**Q:** Same question for `O=C(O)c1cn2c3c(cc(N4CCN(CCO)CC4)cc3c1=O)SCC2` please.
**A:** class 0

**Q:** Same question for `N#CSc1ccc(S(N)(=O)=O)cc1` please.
**A:** class 0

**Q:** Same question for O=S(=O)(/N=C(\NO)Nc1ccc(Cl)cc1)C1CC=C(c2ccon2)S1 (stereo unspecified) please.
**A:** class 0

**Q:** Same question for `c1cc2c(cc1NC1=NCCO1)OCO2` please.
**A:** class 0

**Q:** Same question for CC(C)(C)OC(=O)NC(Cc1ccc(OCc2ccccc2)cn1)C(=O)N1CCCC1 (stereo unspecified) please.
**A:** class 0

**Q:** Same question for Cc1ccc(C)c(NC(=O)C(=O)C(C(=O)c2ccc3ccccc3c2)C2OC(=O)c3ccccc32)c1 (stereo unspecified) please.
**A:** class 0

**Q:** Same question for `Cc1c(C#N)c2nnn(-c3cccc(Cl)c3)c(=O)n2c1-c1ccccc1` please.
**A:** class 1

**Q:** Same question for `CSc1ccccc1NC1=NCCO1` please.
**A:** class 0

**Q:** Same question for `CCOc1ccccc1/N=N/c1ccc2oc(=O)c(C(=O)Nc3cccc(C)c3)cc2c1` please.
**A:** class 0

====

# Test system: RXF 393
# test: NCI tumour cell line growth inhibition, 48 h
The source made the active and inactive calls. No stated cut-off is given here; in the data, active = GI50 up to about 1.1 µM and inactive = higher.
Choose the fitting class; nothing outside 1.0 (active), 0.0 (inactive) is accepted.

>  <compound>
CC1=NN(c2nc(N)nc(/C(C#N)=C\c3ccc([N+](=O)[O-])s3)n2)C(C)(C)C1

>  <measured.on>
RXF 393

>  <discrete.label>
1.0

$$$$
>  <compound>
Cc1cccc(C(O)c2ccccn2)c1O (stereo unspecified)

>  <measured.on>
RXF 393

>  <discrete.label>
0.0

$$$$

**Q:** For `Cn1c(N=[N+]=[N-])cc(=O)n(C)c1=O` , which call appears in the assay record?
**A:** 0.0

====

# Tested on: CCRF-CEM
# test: NCI tumour cell line growth inhibition, 48 h
Active and inactive are the calls of the source. No stated cut-off is given here; in the data, active = GI50 up to about 1.1 µM and inactive = higher. *1 amine or outer side, *2 acyl side, *3 side chain or, on linkers, in order; H or OH if unused. Where a SMILES comes first, the peptide text is derived from it. Bridges are numbered along the chain shown (N, C = ends). [ ]: non-standard residue; d: D form. The star is where a group is joined. ξ: configuration not given here. ξOrn(4,5-diOH) = O=C(C(CC(O)C(O)N[*:3])N[*:1])[*:2]; ξhTyr(βξ-OH,γξ-OH) = NC(C(=O)O)C(O)C(O)c1ccc(O)cc1; ξPro(3ξ-OH,4ξ-Me) = CC1CNC(C(=O)O)C1O; X55 = CCCCC/C=C/C/C=C\CCCCCCCC(=O)*; Hyp = O=C(O)[CH]1C[CH](O)CN1
Choose the fitting class; nothing outside active, inactive is accepted.

Recorded results for 5 molecules are shown here.
>  <molecule>
O=C(NC(Cc1ccc(I)cc1)C(=O)O)c1ccc(Cl)cc1 (stereo unspecified)

>  <discrete.label>
inactive

$$$$
>  <molecule>
CC1OC(OC2C(O[C@H]3CC[C@@]4(C)C(=CC[C@H]5[C@@H]6C[C@@H]7O[C@]8(CC[C@@H](C)CO8)[C@@H](C)[C@@H]7[C@@]6(C)CC[C@@H]54)C3)OC(CO)C(OC3OC(CO)C(O)C3O)C2O)C(O)C(O)C1O (stereo partly specified)

>  <discrete.label>
active

$$$$
>  <molecule>
N#Cc1nnc2c3c(-c4ccc(Cl)cc4)c(C#N)c(O)nc3nn2c1N

>  <discrete.label>
inactive

$$$$
>  <molecule>
CCCCC/C=C/C/C=C\CCCCCCCC(=O)NC1CC(O)C(O)NC(=O)C2C(O)C(C)CN2C(=O)C(C(C)O)NC(=O)C(C(O)C(O)c2ccc(O)cc2)NC(=O)C2CC(O)CN2C(=O)C(C(C)O)NC1=O (stereo not drawn) (X55-[ξOrn(4,5-diOH)]T[Hyp][ξhTyr(βξ-OH,γξ-OH)]T[ξPro(3ξ-OH,4ξ-Me)]; lactam 1-C; configuration not given here)

>  <discrete.label>
inactive

$$$$
>  <molecule>
Cc1nnc([C@@]2(C)CC[C@H]3[C@@H](CC=C4C[C@@H](O)CC[C@@]43C)[C@@H]2CC#N)o1

>  <discrete.label>
inactive

$$$$

**Q:** For O=C(NC1=NC2C=CC([N+](=O)[O-])=CC2S1)C(=O)Nn1c(S)nc2ccccc2c1=O (stereo unspecified) , which call appears in the assay record?
**A:** inactive

Hey, just so you know, these numbers are from ChEMBL document CHEMBL1201862.
